Listed next: entries and their corresponding Enzyme Activity Endpoint Assay (purified): scIgG.
# target_under_test: pooled human IgG
Quick reminder: number only, in ng/µL, skip the unit.

[
  {
    "protein": "PRT-76 (protein) MANQEIRYSEVTPYHITSVWTKGVTPPAKFTQGEDVFHAPYVANQGWYDITKTFNGKDDLLCGAATAGNMLHWWFDQNKEEIEAYLKKHPEKQKIMFGDQELLDVRKVINTKDSQTNSALFNYFKDKAFPNLSARRLGVMPDLVLDMFINGYYLNVYKTQTTDVNRTYQTKDRRGGIFDAVFTRGDQSKLLTERHDFKEKTLKEISDLIKQELTEGKALGLSHTYANVRINHVINLWGADFDSNGNLEAIYVTDSDSNASIGMKKYFVGVNSAGKVAISAKEIKEDNIGAQVLGLFTLSTGQDIWNQTN",
    "reported_measurement": 38
  },
  {
    "protein": "IdeZ (protein) DDYQRNATEAYAKEVPHQITSVWTKGVTPLTPEQFRYNNEDVIHAPYLAHQGWYDITKAFDGKDNLLCGAATAGNMLHWWFDQNKTEIEAYLSKHPEKQKIIFNNQELFDLKAAIDTKDSQTNSQLFNYFRDKAFPNLSARQLGVMPDLVLDMFINGYYLNVFKTQSTDVNRPYQDKDKRGGIFDAVFTRGDQTTLLTARHDLKNKGLNDISTIIKQELTEGRALALSHTYANVSISHVINLWGADFNAEGNLEAIYVTDSDANASIGMKKYFVGINAHGHVAISAKKIEGENIGAQVLGLFTLSSGKDIWQKLS",
    "reported_measurement": 0
  },
  {
    "protein": "PRT-77 (protein) MANQEIRYSEVTPYHVTSVWTKGVTPPTNFTQGEDVFHAPYVANQGWYDITKTFNGKDNLLCGAATAGNMLHWWFDQNKEEIERYLKKHPEKQKIMFGDQELLDVRKVINTKDDQKNSELFNYFRDKAFPGLSARRLGVMPDLVLDMFINGYYLNVGKTQTTDVNRTYQEKDKRGGIFDAVFTRGDQSKLLTSRHDFKEKNLKEISDLIKQELTEGKALGLSHTYANVRINHVINLWGADFDSNGNLEAIYVTDSDSNASIGMKKYFVGVNSAGKVAISAKEIEEDNIGAQVLGLFTLSTGQDIWNQTN",
    "reported_measurement": 17
  },
  {
    "protein": "PRT-66 (protein) MANQEIRYSEVTPYHVTSVWTKGVTPPANFTQGEDVFHAPYVANQGWYDITKTFNGKDDLLCGAATAGNMLHWWFDQNKDYIKRYLEEHPEKQKINFNGEQMFDVKEAIDTKNHQLDSKLFEYFKEKAFPYLSTKHLGVFPDHVIDMFINGYRLSLTNHGPTPVKEGSKDPRGGIFDAVFTRGDQSKLLTSRHDFKEKNLKEISDLIKKELTEGKALGLSHTYANVRINHVINLWGADFDSNGNLKAIYVTDSDSNASIGMKKYFVGVNSAGKVAISAKEIKEDNIGAQVLGLFTLSTGQDSWNQTN",
    "reported_measurement": 13
  },
  {
    "protein": "PRT-155 (protein) MANQEIRYSEVTPYHVTSVWTDGVTPPANFTQGEDVFHAPYVANQGWYDITKTFNGKDDLLCGAATAGNMLHWWFDQNSTQIEAYLKKHPEKQKINFNGEQMFDVKEAIDTKNHQLDSKLFEYFKEKAFPYLSTKHLGVFPDHVIDMFINGYRLSLTNHGPTPVKEGSKDPRGGIFDAVFTRGDQSKLLTSRHDFKEKNLKEISDLIKKELTEGKALGLSHTYANVRINHVINLWGADFDSNGNLKAIYVTDSDSNASIGMKKYFVGVNSAGKVAISAKEIKEDNIGAQVLGLFTLSTGKKSWEKTN",
    "reported_measurement": 18
  },
  {
    "protein": "PRT-607 (protein) MQITSVWTYGVKPLTPEQFRYNNEDVIHAPYLEHQGWYDITKAFDGKDNLLCGAATAGNMLHWWFDQNKTEIEAYLSKHPEKQKIIFNNQELFDLKAAIDTKDSQTNSQLFNYFRDKAFPNLSARQLGVMPDLVLDMFINGYYLNVFKTQSTDVNRPYQDKDKRGGIFDAVFTRGDQTTLLTARHDLKNKGLNDISTIIKQELTEGRALALSHTYANVSISHVINLWGADFNAEGNLEAIYVTDSDANASIGMKKYFVGINAHGHVAISAKKIEGENIGAQVLGLFTLSSGKDIWQKLSLEHHHHHH",
    "reported_measurement": 0
  }
]

Please look up its Enzyme Activity Endpoint Assay (purified): scIgG: PRT-238 (protein) MEVVEVWPYGQNPNGKTEILSQTEDSESLQRLRDIEDFQAEKKMQNVVYTKWLDGVDVKDHDFRKIVDGGIAYYATPLLNGRGFYDINKDFNRDSDLCAAAVAANMFHYWLDINRDNVDRFLRQNPEKHGIIELPDGQLKLSDFLNTYESDHGYRDKSKLFDYISNNFNGPVWTDKLLDNYINGYGYNYKYGRTIEDPTKNTSKINFFKEVFNEKILTNNHSIRNQNEFSVLLSEALYTGKAIGLSYGPAGLRHSLGHIISVWGADLDADGNVVAIYVTDSDDKKLTIGDERVGLKRYKISTDDENRLRLTAYEETHNTGGQIRGLWTLDTGKYAWADYFDKTEQTGTDQAEQLEHHHHHH
28

One more protein: PRT-144 (protein) MANQEIRYSEVTPYHITSVWTKGVTPPANFTQGEDVFHAPYVANQGWYDITKTFNGKDDLLCGAATAGNMLHWWFDQNKDQIKRYLEEHPEKQKINFNGEQMFDVKEAIDTKNHQLDSKLFEYFKEKAFPYLSTKHLGVFPDHVIDMFINGYRLSLTNHGPTPVKEGSKDPRGGIFDAVFTRGDQSKLLTSRHDFKEKTLNDISQLIKQELQSGKALGLSHTYANVRINHVINLWGADFDAEGNLEAIYVTDSDSNASIGMKKYFVGKNSAGKVAISAKEIKEDNIGAQVLGLFTLSTGQDSWNQTN
26
